Recorded GI50 by entry
# System Name: Ba/F3_KRAS^G12D cells (Homo sapiens, UniProt P01116, G12D, cells depend on it)
# Sequence (P01116 whole entry G12D): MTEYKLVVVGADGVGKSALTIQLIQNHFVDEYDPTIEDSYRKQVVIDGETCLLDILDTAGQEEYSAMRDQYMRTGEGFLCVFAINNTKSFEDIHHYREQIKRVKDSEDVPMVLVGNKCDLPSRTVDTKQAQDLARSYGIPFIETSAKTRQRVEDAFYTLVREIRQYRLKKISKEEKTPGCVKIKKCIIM
# Test Details: Ba/F3 KRAS G12D cell proliferation assay (CellTiter-Glo)
# Format: cell-based
# Measurement Context: treated for 3 days, cell-titer Glo, cell growth inhibition, read-out: BaF3_KRAS^G12D IC50
# Experimental: Ba/F3_KRAS^G12D cells (KYinno, China) were generated by transducing Ba/F3 parental cells with the recombinant KRAS^G12D lentivirus and followed by 1 ug/mL of puromycin selection and IL3 depletion. […] Cells were seeded at a density of 5×10^3 per well into 96-well plate and incubated overnight. […] The luminescence signal was then collected on Tecan Spark plate reader. […] Cell growth inhibition of IC50 is calculated with the equation of Y=Bottom+(Top−Bottom)/(1+10^((Log IC50−X)*Hill Slope))

{"Molecule": "CCc1c(F)ccc2cc(O)cc(-c3c(Cl)cc4c(N5CC6CCC(C5)N6)nc(OC[C@@]56CCCN5C[C@H](F)C6)nc4c3F)c12 (single isomer, unassigned) [Compound 147]", "Quantity Measured": "GI50", "Measurement": "< 0.5 µM"}
{"Molecule": "Oc1cc(-c2c(Cl)cc3c(N4CC5CCC(C4)N5)nc(OCC45CCCN4CC(F)(F)C5)nc3c2F)c2ccccc2c1 (stereo not drawn)", "Quantity Measured": "GI50", "Measurement": "0.5 to 5 µM"}
{"Molecule": "N#Cc1cc2c(N3CC4CCC(C3)N4)nc(OC[C@@]34CCCN3C[C@H](F)C4)nc2c(F)c1-c1cc(O)cc2ccc(F)c(Cl)c12", "Quantity Measured": "GI50", "Measurement": "< 0.5 µM"}

What value of GI50 has been reported for the following molecule? Oc1cc(-c2c(Cl)cc3c(N4CC5CCC(C4)N5)nc(OC[C@]45CCCN4C[C@@H](F)C5)nc3c2F)c2c(Cl)cccc2c1 (single isomer, unassigned) [Compound 102]
0.5 to 5 µM

What value of GI50 has been reported for the following molecule? N#CC[C@H]1CN(c2nc(OC[C@@]34CCCN3C[C@H](F)C4)nc3c(F)c(-c4cc(O)cc5ccccc45)c(Cl)cc23)CCN1
0.5 to 5 µM

What value of GI50 has been reported for the following molecule? CN1CCC[C@H]1COc1nc(N2CCNCC23CC3)c2cc(Cl)c(-c3cc(O)cc4cccc(Cl)c34)c(F)c2n1
0.5 to 5 µM

----------
# System Name: recombinant human KRAS^G12D protein (Homo sapiens, UniProt P01116, G12D)
# Sequence (P01116 1-188 isoform P01116-2 G12D): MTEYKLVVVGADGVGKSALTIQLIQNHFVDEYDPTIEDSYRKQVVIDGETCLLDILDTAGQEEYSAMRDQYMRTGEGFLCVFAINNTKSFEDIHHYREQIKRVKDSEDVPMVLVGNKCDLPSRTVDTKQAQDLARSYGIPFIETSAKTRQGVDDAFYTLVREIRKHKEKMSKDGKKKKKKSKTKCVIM
# Test Details: Temperature-dependent Fluorescence (TdF) KRAS G12D protein binding assay
# Measurement Context: 6 μM KRAS^G12D protein, 10 μM compound, Sypro Orange; Kd calculated from the fluorescent shift
Quantity Measured: Kd

What value of Kd has been reported for the following molecule? CN1CCC(c2nc(N3CC4CCC(C3)N4)c3cc(Cl)c(-c4cc(O)cc5ccccc45)c(F)c3n2)CC1
> 5000 nM

What value of Kd has been reported for the following molecule? Oc1cc(-c2c(Cl)cc3c(N4CC5CCC(C4)N5)nc(OC[C@@]45CCCN4C[C@H](F)C5)nc3c2F)c2ccccc2c1 [Compound 68]
< 500 nM

What value of Kd has been reported for the following molecule? Nc1nc2c(-c3c(Cl)cc4c(N5CC6CCC(C5)N6)nc(OC[C@@]56CCCN5C[C@H](F)C6)nc4c3F)ccc(C(F)(F)F)c2s1
< 500 nM

----------
# System Name: Ba/F3_KRAS^G12D cells (Homo sapiens, UniProt P01116, G12D, cells depend on it)
# Test Details: Ba/F3 KRAS G12D cell proliferation assay (CellTiter-Glo)
# Type: cell-based
# Measurement Context: treated for 3 days, cell-titer Glo, cell growth inhibition, read-out: BaF3_KRAS^G12D IC50
Quantity Measured: GI50

{"Compound": "Oc1cc(-c2c(Cl)cc3c(N4CC5CCC(C4)N5)nc(OC[C@@]45CCCN4C[C@H](F)C5)nc3c2F)c2c(Cl)cccc2c1 [Compound 58]", "GI50": "< 0.5 µM"}
{"Compound": "COc1nc(N2CC3CCC(C2)N3)c2cc(Cl)c(-c3nc(N)cc(C)c3C(F)(F)F)c(F)c2n1 [Compound 144]", "GI50": "0.5 to 5 µM"}
{"Compound": "CN(C)C1CCCN(c2nc(N3CC4CCC(C3)N4)c3cc(Cl)c(-c4cc(O)cc5ccccc45)c(F)c3n2)C1 (stereo not drawn) [Compound 56]", "GI50": "0.5 to 5 µM"}
{"Compound": "Nc1nc2c(-c3c(Cl)cc4c(N5CC6CCC(C5)N6)nc(OC[C@@]56CCCN5C[C@H](F)C6)nc4c3F)ccc(C(F)(F)F)c2s1 [Compound 143]", "GI50": "0.5 to 5 µM"}
{"Compound": "Nc1cccc(F)c1-c1c(Cl)cc2c(N3C4CCC3CNC4)nc(OCC34CCCN3CCC4)nc2c1F [Compound 66]", "GI50": "> 5 µM"}

What value of GI50 has been reported for the following compound? N#Cc1cc2c(N3CC4CCC(C3)N4)nc(OC[C@@]34CCCN3C[C@H](F)C4)nc2c(F)c1-c1cc(O)cc2cccc(Cl)c12 (single isomer, unassigned) [Compound 119]
0.5 to 5 µM

What value of GI50 has been reported for the following compound? Cc1cc(F)c2sc(N)nc2c1-c1c(Cl)cc2c(N3CC4CCC(C3)N4)nc(OC[C@@]34CCCN3C[C@H](F)C4)nc2c1F [Compound 100]
0.5 to 5 µM

What value of GI50 has been reported for the following compound? CN(C)CCCOc1nc(N2CC3CCC(C2)N3)c2cc(Cl)c(-c3c(O)cccc3F)c(F)c2n1 [Compound 8]
> 5 µM

What value of GI50 has been reported for the following compound? CNC1CCN(c2nc(OC[C@@H]3CCCN3C)nc3c(F)c(-c4cc(O)cc5cccc(Cl)c45)c(Cl)cc23)C1 (stereo partly drawn) [Compound 16]
0.5 to 5 µM

What value of GI50 has been reported for the following compound? C[C@H]1CNCCN1c1nc(OC[C@@H]2CCCN2C)nc2c(F)c(-c3cc(O)cc4cccc(Cl)c34)c(Cl)cc12 [Compound 22]
0.5 to 5 µM

What value of GI50 has been reported for the following compound? C#Cc1c(F)ccc2cc(O)cc(-c3c(OC)cc4c(N5CC6CCC(C5)N6)nc(OC[C@@]56CCCN5C[C@H](F)C6)nc4c3F)c12 [Compound 162]
< 0.5 µM

What value of GI50 has been reported for the following compound? CN1C[C@H](F)C[C@H]1COc1nc(N2CC3CCC(C2)N3)c2cc(Cl)c(-c3cc(O)cc4ccccc34)c(F)c2n1 [Compound 76]
0.5 to 5 µM

What value of GI50 has been reported for the following compound? Cc1cc(-c2c(Cl)cc3c(N4CC5CCC(C4)N5)nc(OC[C@@H]4CCCN4C)nc3c2F)cc2[nH]ncc12 [Compound 109]
0.5 to 5 µM

What value of GI50 has been reported for the following compound? Oc1cc(-c2c(Cl)cc3c(N4CC5CCC(C4)N5)nc(OCCN4CCC(O)C4)nc3c2F)c2ccccc2c1 (stereo not drawn) [Compound 46]
> 5 µM

What value of GI50 has been reported for the following compound? Oc1cc(-c2c(Cl)cc3c(N4C5CCC4CNC5)nc(OCC45CCCN4CCC5)nc3c2F)c2ccccc2c1 [Compound 33]
0.5 to 5 µM

What value of GI50 has been reported for the following compound? CN1CCC2(CC1)CCN(c1nc(N3CC4CCC(C3)N4)c3cc(Cl)c(-c4cc(O)cc5ccccc45)c(F)c3n1)C2 [Compound 41]
0.5 to 5 µM

What value of GI50 has been reported for the following compound? CNC(=O)c1cc2c(N3CC4CCC(C3)N4)nc(OC[C@@]34CCCN3C[C@H](F)C4)nc2c(F)c1-c1cc(O)cc2cccc(Cl)c12 [Compound 122]
> 5 µM

What value of GI50 has been reported for the following compound? CN1CCC[C@H]1COc1nc(N2C[C@H]3NCC[C@H]32)c2cc(Cl)c(-c3cc(O)cc4cccc(Cl)c34)c(F)c2n1 [Compound 25]
0.5 to 5 µM

What value of GI50 has been reported for the following compound? CN1CCN(c2nc(N3CC4CCC(C3)N4)c3cc(Cl)c(-c4cc(O)cc5ccccc45)c(F)c3n2)CC1 [Compound 83]
0.5 to 5 µM

What value of GI50 has been reported for the following compound? Oc1cc(-c2c(Cl)cc3c(N4CC5CCC(C4)N5)nc(OC[C@@]45CCCN4C[C@H](F)C5)nc3c2F)c2ccccc2c1 (single isomer, unassigned) [Compound 108]
0.5 to 5 µM

What value of GI50 has been reported for the following compound? Cc1cc(N)nc(-c2c(Cl)cc3c(N4CCN[C@@H](CC#N)C4)nc(OC[C@@H]4C[C@@H](F)CN4C)nc3c2F)c1C(F)(F)F [Compound 135]
> 5 µM
